Test: in vitro
Conditions: human
reportedMetric: CC50

Input: Reported CC50, compound Nc1ncnc2c([C@@H]3N[C@H](CO)[C@@H](O)[C@H]3O)c[nH]c12 [Compound 1] : ____
Output: > 100 µg/mL

====

Assay: in vitro
Details: human
reportedMetric: CC50

Input: Recorded CC50 of Nc1ncnc2c([C@@H]3N[C@H](CO)[C@@H](O)[C@H]3O)c[nH]c12 , please.
Output: > 100 µg/mL

====

Assay: in vitro
Conditions: African green monkey
reportedMetric: CC50 (µg/mL)
Field: numeric (µg/mL). Do not append units.

Input: Consider the compound Nc1ncnc2c([C@@H]3N[C@H](CO)[C@@H](O)[C@H]3O)c[nH]c12 and give its measured CC50.
Output: 52

====

Assay: in vitro
Settings: African green monkey, Visual CPE Assay
reportedMetric: CC50 (µg/mL)
Report as a plain number; the unit µg/mL is understood.

Input: Consider the compound shown here: Nc1ncnc2c([C@@H]3N[C@H](CO)[C@@H](O)[C@H]3O)c[nH]c12 What is its recorded CC50?
Output: 100
